# test system: bovine serum albumin (BSA) (Bos taurus)
# Sequence (P02769 25-607): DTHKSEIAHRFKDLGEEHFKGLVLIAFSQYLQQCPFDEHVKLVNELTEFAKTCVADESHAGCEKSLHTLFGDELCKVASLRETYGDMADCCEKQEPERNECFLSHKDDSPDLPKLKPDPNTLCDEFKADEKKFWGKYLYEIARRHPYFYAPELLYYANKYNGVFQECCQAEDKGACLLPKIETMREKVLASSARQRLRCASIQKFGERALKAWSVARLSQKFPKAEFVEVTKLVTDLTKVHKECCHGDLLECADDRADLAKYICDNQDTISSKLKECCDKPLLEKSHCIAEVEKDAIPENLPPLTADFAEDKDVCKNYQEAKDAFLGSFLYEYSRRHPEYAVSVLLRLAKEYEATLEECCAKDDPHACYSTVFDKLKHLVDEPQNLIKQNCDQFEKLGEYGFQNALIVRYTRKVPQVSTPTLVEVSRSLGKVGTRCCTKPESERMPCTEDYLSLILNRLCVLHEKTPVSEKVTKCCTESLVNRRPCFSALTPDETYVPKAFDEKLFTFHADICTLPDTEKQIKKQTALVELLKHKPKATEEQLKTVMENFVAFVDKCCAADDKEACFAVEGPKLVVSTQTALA
# test summary: fluorescence turn-on with BSA in PBS buffer
# Format: binding
# particulars: with BSA 1.0 mg/ml; 10 μM dye, 10 mM PBS, 0.5% DMSO, pH 7.4
# Protocol: In the aqueous buffer (0.5% DMSO, 10 mM of PBS, pH=7.4), the BSA binding-induced fluorescence turn-on was so large that it could be easily seen by naked eye. […] The intramolecular charge transfer along the D-A conjugated backbone plays a very important role in the environment-sensitivity of the flavone. […] Generally, the detection limit can be defined as the analyte concentration at which a 10% increase in fluorescence emission can be measured. […]
measure: λem(+) (nm)

Nc1ccc(-c2oc3ccccc3c(=O)c2O)cc1	512
CCOCc1ccc2oc(-c3ccc(N(C)C)cc3)c(O)c(=O)c2c1	506
CC(=O)Nc1ccc(-c2oc3ccccc3c(=O)c2O)cc1	514

Where do these numbers come from? They come from patent US9636021B2.
